Item-by-item account of cytotoxicity at 70.5 h
Assay: Human HepG2 cell viability assay in 384 well format
Assay type: toxicity, cell-based
Parameters: dose 125 nL, time 70.5 hour; concentration not given beside the values
Conditions: HepG2 cells, read-out: Inhibition
Record the value in %, omitting the unit from your answer.

Some solved entries appear below for comparison.
INSERT INTO assay_data (molecule, quantity_measured, recorded_value) VALUES
  ('Cc1cc(-c2cnc(NCc3ccncc3)nc2C(C)C)on1', 'cytotoxicity at 70.5 h', 2.62),
  ('CS(=O)(=O)NCC1CCCCN1Cc1cccc(C#N)c1 (configuration not stated)', 'cytotoxicity at 70.5 h', -1.33),
  ('CCN(CC)C(=O)c1nnsc1-c1ccccc1', 'cytotoxicity at 70.5 h', -10.3),
  ('CNCC(=O)N1CCCC1c1nc(C(C)C)no1 (configuration not stated)', 'cytotoxicity at 70.5 h', -7.36),
  ('OCC(CO)N1CCCC(Cc2cnc(Nc3ccccn3)cn2)C1 (configuration not stated)', 'cytotoxicity at 70.5 h', -3.34),
  ('O=C(NCc1nncn1C1CC1)c1ccccc1Oc1cccnc1', 'cytotoxicity at 70.5 h', -7.51),
  ('CC(Cn1cccn1)NC(=O)NCCN1CCCCCC1=O (configuration not stated)', 'cytotoxicity at 70.5 h', 2.55),
  ('CN(C)C(=O)c1cncnc1-c1ccc(CNC(=O)C2CC2)cc1', 'cytotoxicity at 70.5 h', -11.4);

# context switch: different molecule, same cytotoxicity at 70.5 h
Quick note, cytotoxicity at 70.5 h for COc1c(CNC(c2nccn2C)C(C)C)c(C)nn1C (configuration not stated) landed at -6.48

----------
Assay: Human HepG2 cell viability assay in 384 well format
Assay type: toxicity, cell-based
Parameters: dose 125 nL, time 70.5 hour; concentration not given beside the values
Conditions: HepG2 cells, read-out: Inhibition
cytotoxicity at 70.5 h values, listed per item
Form entry: value (%) — number only.

Study these solved cases before continuing.
INSERT INTO measurements (compound, units, recorded_value) VALUES
  ('Cc1noc(-c2ccnc(N3CCCN(C4CCOCC4)CC3)c2)n1', '%', -3.75),
  ('Cc1nc(CN(C)C2CCN(CCCOc3ccccc3C)C2)no1 (stereo unspecified)', '%', 0.379),
  ('O=S(=O)(NC[C@]12COC[C@H]1CN(CCc1ccccc1)C2)C1CC1', '%', -2.87);

// cytotoxicity at 70.5 h lookup, compound = CNc1nc(C)cc(NC2CCCN(C3Cc4ccccc4C3)C2)n1 (stereo unspecified) , result: 14.9

Noted for O=C1CCC(CCC(=O)N2CCCC2c2nccs2)=NN1 (stereo unspecified) : its cytotoxicity at 70.5 h reads 8.6

Entry CC(=O)N1CCCN(C(=O)C(C)n2cncn2)CC1 (stereo unspecified) ; cytotoxicity at 70.5 h = -3.53

cytotoxicity at 70.5 h recorded for this compound, "Cc1nccn1CCC1CCN(c2ccncn2)CC1" , is -2.98

# cytotoxicity at 70.5 h (compound: "COCCCNC(=O)Cn1nnc(-c2cc3ccccc3o2)n1" ) is -13.2

The compound listed as CC(C)NC(=O)c1cc2c([nH]c1=O)CC(c1cccs1)CC2=O (stereo unspecified) has a reported cytotoxicity at 70.5 h of 6.88

// cytotoxicity at 70.5 h value for Cc1[nH]ncc1CCCNC(=O)N1CCN2CCCCC2C1 (stereo unspecified) : 8.45

"O=C(CC1CC1)N1CC[C@H]2[C@@H]1CCC(=O)N2c1cccnc1" yielded cytotoxicity at 70.5 h of -16.4

----------
Recorded cytotoxicity at 70.5 h by entry
Assay: Human HepG2 cell viability assay in 384 well format
Type: toxicity, cell-based
Set-up: dose 125 nL, time 70.5 hour; concentration not given beside the values
Conditions: HepG2 cells, read-out: Inhibition
Remember to put the unit after the number in your answer.

Lab note: COc1ccc(S(=O)(=O)C(C)C(=O)NCCOc2cccc(C)c2)cc1 (stereo not drawn) gave cytotoxicity at 70.5 h of -3.65%

Input CC(C#N)CN(C)Cc1nc2c(cnn2C)c(=O)[nH]1 (stereo not drawn) . Output cytotoxicity at 70.5 h: -7.12%

Record summary for "CCS(=O)(=O)N1CCC(c2cc3n(n2)[C@@H](C(F)(F)F)C[C@@H](C)N3)CC1" : reported cytotoxicity at 70.5 h = -17.1%

Lab note: measured cytotoxicity at 70.5 h of "Cc1cc2nc(O)c(O)nc2cc1S(=O)(=O)NC1CC1" was -12.3%

In plain terms, "N[C@H]1CN(C(=O)c2ccc(CO)cc2)C[C@@H]1C1CC1" has a documented cytotoxicity at 70.5 h of 6.41%

Record "COCCNS(=O)(=O)c1cccc2c1CN(C(=O)c1cc(C)on1)CC2" , field cytotoxicity at 70.5 h: -2.31%

Reported cytotoxicity at 70.5 h ( CCC(=O)N1CCCC(Cn2cc(-c3ccc(F)cc3)nn2)C1 (stereo not drawn) ) = -6.83%

CNc1nc(C(=O)N2CCC3(CCCN(CCOC)C3=O)C2)cs1 (stereo not drawn) yielded cytotoxicity at 70.5 h of -3.96%

Record "CC1(CCC(=O)N2CCC(n3cc(C4(O)CCCC4)nn3)CC2)CC1" . Reported cytotoxicity at 70.5 h: 22.5%

----------
The entries below come with measured cytotoxicity at 70.5 h values attached.
Experiment: Human HepG2 cell viability assay in 384 well format
Format: toxicity, cell-based
Design: dose 125 nL, time 70.5 hour; concentration not given beside the values
Settings: HepG2 cells, read-out: Inhibition
A number alone suffices; assume %.

// cytotoxicity at 70.5 h lookup, compound = "Cc1nn(C)cc1-c1ccnc(NCCN)n1" , result: -8.28

cytotoxicity at 70.5 h reading for CN(Cc1cccnc1)CC1CC12CCN(c1nncs1)CC2 (stereo unspecified) : -12.3

compound COCC1c2nnn(C)c2CCN1C(=O)COc1ccccc1OC (stereo unspecified) , cytotoxicity at 70.5 h observed: 1.52

Entry "Cc1noc(C)c1CN1CC[C@H]2C[C@@H](c3ccncn3)O[C@@H]2C1" — recorded cytotoxicity at 70.5 h = -10.7

// sample "CNc1nc2c(s1)C(=O)CN(C(=O)NCCc1ccccc1)C2" , its cytotoxicity at 70.5 h was 17.6

Reported cytotoxicity at 70.5 h ( Cc1cccc(CN2CC3C[C@]3(NC(=O)c3ccoc3)C2)n1 (stereo partly specified) ) = -12.4

The compound Cc1cccc(Nc2cc(C3CCCN(CC(N)=O)C3)ccn2)n1 (stereo unspecified) showed cytotoxicity at 70.5 h equal to 22.5

So for O=C(c1cccc(F)c1)N1CCCC1c1ncc2c(n1)CCNC2 (stereo unspecified) , the logged cytotoxicity at 70.5 h turned out to be -4.38

Record "CCOc1ccc(C(=O)N(Cc2cnn(C)c2)C(C)C)cc1OCC" . Reported cytotoxicity at 70.5 h: -3.25

Reported cytotoxicity at 70.5 h ( c1cnc(N2CCCC(c3cc4cccnc4[nH]3)C2)nc1 (stereo unspecified) ) = -8.49

Data point: "O=C(NC[C@@H]1CCCO1)c1ccc(S(=O)(=O)N[C@@H]2CCNC2)cc1" ; cytotoxicity at 70.5 h = 6

----------
Assay: Human HepG2 cell viability assay in 384 well format
Assay type: toxicity, cell-based
Set-up: dose 125 nL, time 70.5 hour; concentration not given beside the values
Settings: HepG2 cells, read-out: Inhibition
Quantity Measured: cytotoxicity at 70.5 h (%)
Enter your answer as a number in %; do not include the unit.

INSERT INTO assay_data (compound, recorded_value) VALUES
  ('Cn1cc(-c2cccc(CNC(=O)N3CCC[C@@H]3CO)c2)cn1', -4.94),
  ('COc1cccc(-c2noc(-c3ccc(NCC(C)O)nc3)n2)c1OC (stereo unspecified)', -0.152);

Notebook: "Cc1n[nH]c(SCC(=O)N[C@@H](C)C(N)=O)n1" , cytotoxicity at 70.5 h read as 0.227

Form: compound = CC(C)Nc1nc(O)cc(C2CC(=O)N(C3CCCCC3)C2)n1 (stereo unspecified) ; cytotoxicity at 70.5 h = -3.62

cytotoxicity at 70.5 h reading for "CC(=O)N1Cc2cnc(C(C)(C)C)nc2C1" : 19.2

Kindly note the recorded cytotoxicity at 70.5 h for O=C(O)C1CCCN1c1nc(C2CC2)cc(C(F)(F)F)n1 (stereo unspecified) , which is 2.63

----------
This section presents molecules with their documented cytotoxicity at 70.5 h values.
Test: Human HepG2 cell viability assay in 384 well format
Type: toxicity, cell-based
Parameters: dose 125 nL, time 70.5 hour; concentration not given beside the values
Details: HepG2 cells, read-out: Inhibition
Please state the figure in %; there is no need to write the unit.

In the examples that follow, each entry is paired with its recorded cytotoxicity at 70.5 h.
INSERT INTO measurements (molecule, quantity_measured, units, recorded_value) VALUES
  ('O=C(c1ccccn1)N1Cc2ccccc2OC2(CCOCC2)C1', 'cytotoxicity at 70.5 h', '%', -0.0226),
  ('COC(=O)N1CCCN(C(=O)NC2CCc3ccccc3C2)CC1 (configuration not stated)', 'cytotoxicity at 70.5 h', '%', -1.7),
  ('Cc1cc(C(=O)N2C[C@@H]3COC[C@]3(c3nnc(C4CC4)o3)C2)on1', 'cytotoxicity at 70.5 h', '%', -19),
  ('COc1ccccc1-c1ncc(CN2CCC3(CCNCC3)CC2)cn1', 'cytotoxicity at 70.5 h', '%', -7.68),
  ('CNC(=O)CN1CCCC12CCN(C(=O)c1cccc(F)c1)CC2', 'cytotoxicity at 70.5 h', '%', 24.1),
  ('CCc1cc(NCCCC2CCOC2)n2nccc2n1 (configuration not stated)', 'cytotoxicity at 70.5 h', '%', -1.93);

// "N#Cc1ccccc1C(=O)N1C[C@@H](CN2CCOCC2)[C@@H](CO)C1" : cytotoxicity at 70.5 h value = -12

Lab note: CC(C)CC(C)NC1CCN(c2ccc(-c3cscn3)cc2)CC1 (configuration not stated) gave cytotoxicity at 70.5 h of -15.5

The molecule listed as "Cc1ccc(S(=O)(=O)N(CCO)C2CC2)cc1N(C)C" has a reported cytotoxicity at 70.5 h of 2.04

Per the record, COCCc1noc(CNC2CCCC(C)(C)C2)n1 (configuration not stated) has cytotoxicity at 70.5 h of -4.63

Looking up Cc1csc(CN(CC2CCCO2)C(=O)c2occc2C)n1 (configuration not stated) , I found its cytotoxicity at 70.5 h recorded as 22.1

Briefly, cytotoxicity at 70.5 h measured for COC1CCCN(C(=O)NCC(C)(C)SC)C1 (configuration not stated) : -11.6

All figures here come from ChEMBL document CHEMBL3507680.
